Cited source for all entries: ChEMBL document CHEMBL1138417

Examples of compounds with documented inhibition in vivo at 100 mg/kg follow.
experiment: Inhibition of Escherichia coli induced PI3Kinase dependent leukocyte migration in mouse peritonitis model at 100 mg/kg, po after 1 hr
Format: functional
Answer in %, number only, no unit symbol.

The following compounds have reported results that may help.
smiles repr: O=C1NC(=S)S/C1=C\c1ccc2c(c1)N(CCc1ccc(Cl)c(Cl)c1)C(=O)CO2
unit of measurement: %
measured number: 35.2

smiles repr: O=C1NC(=S)S/C1=C\c1ccc2c(c1)N(CCc1ccc(Br)cc1)C(=O)CO2
unit of measurement: %
measured number: 30.8

Please turn your attention to the following entry.
Please fill in: inhibition in vivo at 100 mg/kg reported for COc1cccc(CCN2C(=O)COc3ccc(/C=C4\SC(=S)NC4=O)cc32)c1 = -14
